Recorded values, source ChEMBL document CHEMBL1201862.

test system: UO-31; assay: NCI tumour cell line growth inhibition, 48 h
Calls of active or inactive are those of the source. Rule as the data show it: active = GI50 up to about 1.1 µM and inactive = higher.
Possible outcomes: yes (1) = active, no (0) = inactive

>>> classification("CN(C)/C=N/S(=O)(=O)c1nn2c(C=O)c(-c3ccc(Cl)cc3)nc2s1")
"yes (1)"
>>> classification("Cc1ccc(C(=O)O/N=C2/CCCCC2CN(C)C)cc1 (stereo unspecified)")
"no (0)"
>>> classification("CC(C#N)c1cn(S(=O)(=O)c2ccccc2)c2ccccc12 (stereo unspecified)")
"no (0)"
>>> classification("COc1ccc2c(c1)OCC1Cc3cccc(OC)c3OC21 (stereo unspecified)")
"no (0)"
>>> classification("CC(C)(Oc1ccc(Cl)cc1)C(=O)N(C(=O)N1CCCCC1)c1ccccc1")
"no (0)"
>>> classification("O=C(CCN1CCCC1)CC(c1ccccc1)c1c(O)c2ccccc2oc1=O (stereo unspecified)")
"no (0)"
>>> classification("COC(=O)C1=C([C@H]2COC(C)(C)O2)[C@H]2C[C@@H]1[C@@H]1OC(C)(C)O[C@@H]12")
"no (0)"
>>> classification("CC1=CC(/C=C(\\C)CCCc2ccoc2)C2(OC(=O)C(C)=C2O)[C@H]2C1CC[C@@H]2C (stereo partly specified)")
"no (0)"
>>> classification("C1CNCCNCCNCCN1")
"no (0)"
>>> classification("CCCCCCCCCCC(=O)CC(=O)c1c(O)cccc1O")
"no (0)"
>>> classification("NC(=O)NC12CC3CC(CC(F)(C3)C1)C2")
"no (0)"

----------
tested on: HL-60; experiment: NCI tumour cell line growth inhibition, 48 h
Calls of active or inactive are those of the source. No stated cut-off is given here; in the data, active = GI50 up to about 1.1 µM and inactive = higher.
Possible outcomes: label 1 (active), label 0 (inactive)

>>> classification("CCc1cccc(C)c1NC(=O)CCc1nnc2s/c(=C\\c3cccc4ccccc34)c(=O)n12")
"label 0"
>>> classification("CSC(=S)c1ccc(C(=S)SC)cc1")
"label 0"
>>> classification("CC#C[C@@]1(O)CCCCC1O (stereo not given in full)")
"label 0"
>>> classification("CSc1nc(SC)c2ncn(C3CC(Oc4ccc(C)cc4)C(COc4ccc(C)cc4)O3)c2n1 (stereo not given)")
"label 0"
>>> classification("C[Si](C)(C)C1(Sc2ccccc2)SCCCS1")
"label 0"
>>> classification("COC(=O)[C@@H]1C=C[C@H](OC2OC(COC(C)=O)C(OC(C)=O)C(OC(C)=O)C2OC(C)=O)n2c(=O)c3ccccc3c(=O)n21 (stereo not given in full)")
"label 0"
>>> classification("CCOC(=O)c1cc2c(OC(C)=O)ccc(OC(C)=O)c2s1")
"label 1"
>>> classification("Cc1ccc(S(=O)(=O)NC(CCC(=O)NN)C(=O)NN)cc1 (stereo not given)")
"label 0"
>>> classification("CCOC(=O)C12C(C(=O)OC)=C(C)N(NC(=O)Nc3ccccc3)C1(N)N(NC(=O)Nc1ccccc1)C(C)=C2C(=O)OC (stereo not given)")
"label 0"
>>> classification("O=C(O)c1cccc(OCCO)c1")
"label 0"

----------
system: M14; assay: NCI tumour cell line growth inhibition, 48 h
The source made the active and inactive calls. Rule as the data show it: active = GI50 up to about 1.1 µM and inactive = higher. Non-standard residues stand in square brackets, D forms with d. Residues, ends and D or L forms follow the SMILES beside them. ξ: configuration not given here. *: point of attachment. ξF = NC(Cc1ccccc1)C(=O)O; Cbz = O=C(OCc1ccccc1)*
Possible outcomes: T = active, F = inactive

>>> classification("CCCCOCOc1ccccc1P1(=O)COc2ccccc2OC1")
"F"
>>> classification("Cc1c(NC(=O)CCl)c(=O)oc2c(C)c3occc(=O)c3cc12")
"F"
>>> classification("Nc1nc(=O)[nH]cc1F [FLUCYTOSINE]")
"F"
>>> classification("O/N=C(\\C(=N/O)Nc1ccc(-c2ccc(NC(=N/O)/C(=N\\O)c3ccccc3)cc2)cc1)c1ccccc1")
"F"
>>> classification("CCOC(=O)c1cc2c(OC(C)=O)ccc(OC(C)=O)c2s1")
"F"
>>> classification("CSc1cnc2ccccc2c1Sc1c[nH]c2ccccc2c1=O")
"F"
>>> classification("COc1cc(C=O)cc(O)c1O")
"F"
>>> classification("Cc1cc(Cl)ccc1C(=O)c1ccc2ccccc2c1C(=O)O")
"F"
>>> classification("Cc1cc(O)c2c3c(ccc2c1)C(=O)c1c(O)cccc1C3=O [TETRANGULOL]")
"T"
>>> classification("O=C1c2ccccc2C(=O)N1/N=C\\c1ccc(Br)cc1")
"F"
>>> classification("CCN(CC)CCCNc1c2cc(OC)ccc2nc2cccc([N+](=O)[O-])c12")
"T"
>>> classification("CCOC(=O)CNC(=O)C(Cc1ccccc1)NC(=O)OCc1ccccc1 (stereo not drawn) (Cbz-[ξF]-Gly-OEt)")
"F"
>>> classification("Nc1nc(NNc2ccccc2F)cc(=O)[nH]1")
"F"
>>> classification("CC(=O)CC(=O)CCCC(=O)Nc1ccc(Cl)cc1C")
"F"
>>> classification("C(/C=N/N=C1NCCCCN1)=N\\N=C1NCCCCN1")
"F"
>>> classification("CCN(CC)CCCC(C)Nc1ccnc2cc(Cl)ccc12 (stereo not drawn) [CHLOROQUINE PHOSPHATE]")
"F"
>>> classification("O=C(NC(CS)C(=O)O)c1cccc2c(=O)c3ccccc3[nH]c12 (stereo not drawn)")
"F"
>>> classification("CCOP(=O)(OCC)C(C)(C)N(C)/C(F)=N/C(F)(F)F")
"F"
>>> classification("O=C1C2SC34c5c2c2ccccc2n5CCC3CCCN14 (stereo not drawn)")
"F"
>>> classification("COC(=O)[C@@H]1C=C[C@H](OC2OC(COC(C)=O)C(OC(C)=O)C(OC(C)=O)C2OC(C)=O)n2c(=O)c3ccccc3c(=O)n21 (stereo partly drawn)")
"F"
>>> classification("[O-][n+]1onc2c1/C(=N/O)CCC2")
"F"
>>> classification("C1CNCCNCCNCCN1")
"F"
>>> classification("Cc1cc(C)c(OC(=O)Nc2cccc3ccccc23)c(-c2ccccc2)c1")
"F"

----------
system: OVCAR-4; test: NCI tumour cell line growth inhibition, 48 h
Calls of active or inactive are those of the source. No stated cut-off is given here; in the data, active = GI50 up to about 1.1 µM and inactive = higher.
Measured GI50 values are reported for all entries that follow.
Measurement label: GI50

>>> reported("O=C1OC(C2Cc3ccc4c(c3C2=O)CCC4)c2ccccc21 (centres undefined)")
"38.1 µM (inactive)"
>>> reported("COC(=O)C1=C([C@H]2COC(C)(C)O2)[C@H]2C[C@@H]1[C@@H]1OC(C)(C)O[C@@H]12")
"> 100 µM (inactive)"
>>> reported("C=C1c2nc3ccccc3n2C=C(c2ccc(C)cc2)N1c1ccc(C)cc1")
"69.5 µM (inactive)"
>>> reported("CCCC(=O)NC(Nc1ccc(F)cc1)(C(F)(F)F)C(F)(F)F")
"12.6 µM (inactive)"
>>> reported("COc1ccc(CNc2nc(NCc3ccc(OC)cc3)nc(NC3CCCCC3)n2)cc1")
"10 µM (inactive)"
>>> reported("COc1ccc(NC(=S)NNC(=O)c2nsc3ccccc23)cc1")
"62.2 µM (inactive)"
>>> reported("Nc1ncnc2c1nnn2C1OC(CO)C(O)C1O (centres undefined)")
"8.85 µM (inactive)"
>>> reported("COC(=O)c1cc2c(cc1Cl)Sc1nnc(Nc3ccccc3)n1S2(=O)=O")
"3.37 µM (inactive)"
>>> reported("O=C(NC(CS)C(=O)O)c1cccc2c(=O)c3ccccc3[nH]c12 (centres undefined)")
"> 100 µM (inactive)"

----------
system: SF-539; assay: NCI tumour cell line growth inhibition, 48 h
Activity calls are given as the source filed them. No stated cut-off is given here; in the data, active = GI50 up to about 1.1 µM and inactive = higher.
Measurement label: GI50

>>> reported("COC(=O)Cc1cc(=O)[nH]c2c1C(=O)CCC2")
"> 100 µM (inactive)"
>>> reported("COc1ccc2c(C(=O)O)cc3cc(OC)c(OC)cc3c2c1")
"> 100 µM (inactive)"
>>> reported("CCOC(=O)C12C(C(=O)OC)=C(C)N(NC(=O)Nc3ccccc3)C1(N)N(NC(=O)Nc1ccccc1)C(C)=C2C(=O)OC (stereo not given)")
"18.9 µM (inactive)"
>>> reported("O=C(NCC(O)CNC(=O)C(F)(F)F)C(F)(F)F")
"> 100 µM (inactive)"
>>> reported("CN(C)CC(C)(C)C(=O)/C=C/c1ccc(/C=C/C(=O)C(C)(C)CN(C)C)cc1")
"2.13 µM (inactive)"

----------
test system: SNB-19; test: NCI tumour cell line growth inhibition, 48 h
The source made the active and inactive calls. Cut-off read from the data, not from the text of the source: active = GI50 up to about 1.1 µM and inactive = higher. *1 amine or outer side, *2 acyl side, *3 side chain or, on linkers, in order; H or OH if unused. Where a SMILES comes first, the peptide text is derived from it. Bridges are numbered along the chain shown (N, C = ends). Peptide text beside a SMILES is read from it. [ ]: non-standard residue; d: D form. * marks the point of attachment. X36 = CC[C@H](C)[C@@H](N[*:1])[C@@H](O)CC(=O)O[C@H](C(=O)[C@H](C)C(=O)[*:2])C(C)C; NMeY = CN[C@@H](Cc1ccc(O)cc1)C(=O)O; Cbz = O=C(OCc1ccccc1)*
Measurement label: GI50

>>> reported("COC(=O)C(C(=O)C(=O)Nc1ccc([N+](=O)[O-])cc1[N+](=O)[O-])c1nc2ccc(Cl)cc2nc1O (stereo not drawn)")
"> 100 µM (inactive)"
>>> reported("COc1ccc(/N=C/C=C/Nc2ccc(OC)cc2)cc1")
"3.43 µM (inactive)"
>>> reported("CC[C@H](C)[C@H]1NC(=O)[C@@H](N)[C@@H](C)OC(=O)[C@H](Cc2ccc(OC)cc2)N(C)C(=O)[C@@H]2CCCN2C(=O)[C@H](CC(C)C)NC(=O)[C@@H](C)C(=O)[C@H](C(C)C)OC(=O)C[C@@H]1O (H-T[X36]LP[NMeY](Me); ester 1-C)")
"28.7 µM (inactive)"
>>> reported("CC(=O)c1sc(-c2nc(C)c(C(=O)/C=C\\c3ccc(/C=C\\C(=O)c4sc(-c5nc(C)c(C(C)=O)s5)nc4C)cc3)s2)nc1C")
"> 100 µM (inactive)"
>>> reported("CCOC(=O)C(C)NC(=O)C(C)NC(=O)C(C)NC(=O)C(C)NC(=O)C(C)NC(=O)C(C)NC(=O)C(C)NC(=O)OCc1ccccc1 (stereo not drawn) (Cbz-AAAAAAA-OEt; configuration not given here)")
"> 100 µM (inactive)"
>>> reported("CC(=O)OCC1OC(SC2=N/C(=C\\c3cc4c(=O)c5ccccc5sc4s3)C(=O)N2c2ccccc2)C(OC(C)=O)C(OC(C)=O)C1OC(C)=O (stereo not drawn)")
"40.4 µM (inactive)"
>>> reported("Cn1c(N)nc(=O)c2c1N(C1OC(CO)C(O)C1O)CN2Cc1ccccc1 (stereo not drawn)")
"> 100 µM (inactive)"
>>> reported("CC(=O)Nc1ccc2oc(=O)c3ccccc3c2c1")
"> 100 µM (inactive)"
>>> reported("CC1(C)COC(c2cccc(C3=NC(C)(C)CO3)c2)=N1")
"> 100 µM (inactive)"
>>> reported("[N-]=[N+]=CC(=O)CCC(N)C(=O)O (stereo not drawn)")
"8.71 µM (inactive)"
>>> reported("O=C1Sc2ccc(Br)cc2C(=O)Sc2ccccc21")
"13.9 µM (inactive)"
>>> reported("COc1ccc2c(c1)c1c(n2CCN2CCCCC2)-c2cccc(OC)c2CC1")
"13.4 µM (inactive)"
>>> reported("CSC(=S)c1ccc(C(=S)SC)cc1")
"> 100 µM (inactive)"
>>> reported("O=C1OC(C2Cc3ccc4c(c3C2=O)CCC4)c2ccccc21 (stereo not drawn)")
"52.4 µM (inactive)"
>>> reported("CC(=O)Oc1ccc2[nH]c3c(C)c4cccc-4ccc3c2c1")
"2.04 µM (inactive)"
>>> reported("C=C1c2nc3ccccc3n2C=C(c2ccc(Cl)cc2)N1c1ccc(OCCN2CCOCC2)cc1")
"> 100 µM (inactive)"
>>> reported("O=C1c2ccccc2C(=O)N1/N=C\\c1ccc(Br)cc1")
"> 10 µM (inactive)"
>>> reported("COC(=O)[C@@]12C(=O)CCC(=O)C1C1C(=CC2C)O[C@@H]2OC3(CCCCC3)O[C@H]12 (stereo partly drawn)")
"> 89.5 µM (inactive)"
